Tested on: Bacillus subtilis
protocol_summary: Binding affinity to Bacillus subtilis at 0.0781 mM after 10 mins by fluorescence microscopy
Assay type: functional, organism-based
The source made the active and inactive calls. The rule behind the calls is not given here.
outcome_measure: Activity

Completed entries (count: 5):
# compound, Activity
records = [
    ("O=C1CCCN1[C@H]1C[C@@H](c2cc3ccccc3c3ccccc23)Nc2ccccc21 (relative stereo)", "Active"),
    ("CCCCc1ccc2nc(-c3cc4ccccc4c4ccccc34)cc(N3CCCC3=O)c2c1", "Active"),
    ("O=C1CCCN1c1cc(-c2cc3ccccc3c3ccccc23)nc2ccc(Br)cc12", "Active"),
    ("COc1ccc2c(c1)[C@@H](N1CCCC1=O)C[C@@H](c1cc3ccccc3c3ccccc13)N2 (relative stereo)", "Active"),
    ("O=C1CCCN1c1cc(-c2cc3ccccc3c3ccccc23)nc2ccc(Cl)cc12", "Active"),
]

Returns the measured Activity for the input compound. Input: O=C1CCCN1c1cc(-c2cc3ccccc3c3ccccc23)nc2ccccc12
Active

Returns the measured Activity for the input compound. Input: CCCCc1ccc2c(c1)[C@@H](N1CCCC1=O)C[C@@H](c1cc3ccccc3c3ccccc13)N2 (relative stereo)
inactive

Returns the measured Activity for the input compound. Input: N#Cc1ccc2c(c1)[C@@H](N1CCCC1=O)C[C@@H](c1cc3ccccc3c3ccccc13)N2 (mixture of isomers)
Active

Returns the measured Activity for the input compound. Input: c1ccc2c(c1)N[C@H](c1cc3ccccc3c3ccccc13)C1CCCOC21 (some centres undefined)
inactive

----------
Tested on: Staphylococcus aureus
protocol_summary: Binding affinity to Staphylococcus aureus at 0.0781 mM after 10 mins by fluorescence microscopy
Format: functional, organism-based
The source made the active and inactive calls. The rule behind the calls is not given here.
In this exercise, the only acceptable responses are t for active, f for inactive

# molecule, assigned_category
measured = [
    ("CCCCc1ccc2c(c1)[C@@H](N1CCCC1=O)C[C@@H](c1cc3ccccc3c3ccccc13)N2 (relative stereo)", "t"),
    ("COc1ccc2c(c1)[C@@H](N1CCCC1=O)C[C@@H](c1cc3ccccc3c3ccccc13)N2 (relative stereo)", "t"),
    ("CCCCc1ccc2nc(-c3cc4ccccc4c4ccccc34)cc(N3CCCC3=O)c2c1", "t"),
]

Any idea what this test logged for O=C1CCCN1c1cc(-c2cc3ccccc3c3ccccc23)nc2ccc(Br)cc12 ?
t

Any idea what this test logged for N#Cc1ccc2nc(-c3cc4ccccc4c4ccccc34)cc(N3CCCC3=O)c2c1 ?
t

Any idea what this test logged for O=C1CCCN1[C@H]1C[C@@H](c2cc3ccccc3c3ccccc23)Nc2ccc(Cl)cc21 (relative stereo) ?
f

Any idea what this test logged for O=C1CCCN1[C@H]1C[C@@H](c2cc3ccccc3c3ccccc23)Nc2ccc(Br)cc21 (relative stereo) ?
f

Any idea what this test logged for c1ccc2c(c1)N[C@@H](c1cc3ccccc3c3ccccc13)C1CCCOC21 (some centres undefined) ?
t

Any idea what this test logged for c1ccc2c(c1)N[C@H](c1cc3ccccc3c3ccccc13)C1CCCOC21 (some centres undefined) ?
t

----------
Tested on: Bacillus subtilis
protocol_summary: Binding affinity to Bacillus subtilis at 0.0781 mM after 10 mins by fluorescence microscopy
Type: functional, organism-based
The source made the active and inactive calls. The rule behind the calls is not given here.
In this exercise, the only acceptable responses are active, inactive

Reference set, count: 4
# molecule, assigned_category
measured = [
    ("O=C1CCCN1[C@H]1C[C@@H](c2cc3ccccc3c3ccccc23)Nc2ccc(Br)cc21 (relative stereo)", "inactive"),
    ("COc1ccc2nc(-c3cc4ccccc4c4ccccc34)cc(N3CCCC3=O)c2c1", "active"),
    ("O=C1CCCN1[C@H]1C[C@@H](c2cc3ccccc3c3ccccc23)Nc2ccc(Cl)cc21 (relative stereo)", "active"),
    ("N#Cc1ccc2nc(-c3cc4ccccc4c4ccccc34)cc(N3CCCC3=O)c2c1", "active"),
]

Read the next record carefully.
Any idea what this test logged for c1ccc2c(c1)N[C@@H](c1cc3ccccc3c3ccccc13)C1CCCOC21 (stereo not given in full) ?
inactive
